target: alphaglucosidase from Saccharomyces cerevisiae (Saccharomyces cerevisiae, UniProt P53341); construct: purchased Sigma Aldrich (Shanghai, China); assay: Alphaglucosidase inhibition assay (pNPG); type: biochemical; settings: read-out: AG (IC50 µM)
Sequence (P53341 whole entry): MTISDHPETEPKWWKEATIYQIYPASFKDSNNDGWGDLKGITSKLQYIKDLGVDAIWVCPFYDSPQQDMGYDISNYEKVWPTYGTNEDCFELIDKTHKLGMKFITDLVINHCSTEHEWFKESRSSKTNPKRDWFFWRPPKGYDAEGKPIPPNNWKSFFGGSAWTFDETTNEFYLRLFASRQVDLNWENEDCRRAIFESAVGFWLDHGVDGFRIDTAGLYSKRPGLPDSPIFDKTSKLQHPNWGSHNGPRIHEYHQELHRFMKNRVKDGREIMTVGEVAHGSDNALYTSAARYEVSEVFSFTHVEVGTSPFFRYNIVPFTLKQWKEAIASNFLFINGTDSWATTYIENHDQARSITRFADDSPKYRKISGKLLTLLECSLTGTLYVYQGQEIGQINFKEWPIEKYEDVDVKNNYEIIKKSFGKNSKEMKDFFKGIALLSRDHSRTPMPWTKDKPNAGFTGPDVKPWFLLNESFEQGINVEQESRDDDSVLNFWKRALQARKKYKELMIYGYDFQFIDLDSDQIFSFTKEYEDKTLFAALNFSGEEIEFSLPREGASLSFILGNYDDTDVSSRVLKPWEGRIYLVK
observable: IC50 (µM)
Report the value in µM with no unit label.

Lab book: IC50 of c1ccc2[nH]ccc2c1 [Indole, indole] noted as 18.7

###

# xanthine oxidase from bovine milk (Bos taurus, UniProt P80457): pIC50 values follow
# Sequence (P80457 whole entry): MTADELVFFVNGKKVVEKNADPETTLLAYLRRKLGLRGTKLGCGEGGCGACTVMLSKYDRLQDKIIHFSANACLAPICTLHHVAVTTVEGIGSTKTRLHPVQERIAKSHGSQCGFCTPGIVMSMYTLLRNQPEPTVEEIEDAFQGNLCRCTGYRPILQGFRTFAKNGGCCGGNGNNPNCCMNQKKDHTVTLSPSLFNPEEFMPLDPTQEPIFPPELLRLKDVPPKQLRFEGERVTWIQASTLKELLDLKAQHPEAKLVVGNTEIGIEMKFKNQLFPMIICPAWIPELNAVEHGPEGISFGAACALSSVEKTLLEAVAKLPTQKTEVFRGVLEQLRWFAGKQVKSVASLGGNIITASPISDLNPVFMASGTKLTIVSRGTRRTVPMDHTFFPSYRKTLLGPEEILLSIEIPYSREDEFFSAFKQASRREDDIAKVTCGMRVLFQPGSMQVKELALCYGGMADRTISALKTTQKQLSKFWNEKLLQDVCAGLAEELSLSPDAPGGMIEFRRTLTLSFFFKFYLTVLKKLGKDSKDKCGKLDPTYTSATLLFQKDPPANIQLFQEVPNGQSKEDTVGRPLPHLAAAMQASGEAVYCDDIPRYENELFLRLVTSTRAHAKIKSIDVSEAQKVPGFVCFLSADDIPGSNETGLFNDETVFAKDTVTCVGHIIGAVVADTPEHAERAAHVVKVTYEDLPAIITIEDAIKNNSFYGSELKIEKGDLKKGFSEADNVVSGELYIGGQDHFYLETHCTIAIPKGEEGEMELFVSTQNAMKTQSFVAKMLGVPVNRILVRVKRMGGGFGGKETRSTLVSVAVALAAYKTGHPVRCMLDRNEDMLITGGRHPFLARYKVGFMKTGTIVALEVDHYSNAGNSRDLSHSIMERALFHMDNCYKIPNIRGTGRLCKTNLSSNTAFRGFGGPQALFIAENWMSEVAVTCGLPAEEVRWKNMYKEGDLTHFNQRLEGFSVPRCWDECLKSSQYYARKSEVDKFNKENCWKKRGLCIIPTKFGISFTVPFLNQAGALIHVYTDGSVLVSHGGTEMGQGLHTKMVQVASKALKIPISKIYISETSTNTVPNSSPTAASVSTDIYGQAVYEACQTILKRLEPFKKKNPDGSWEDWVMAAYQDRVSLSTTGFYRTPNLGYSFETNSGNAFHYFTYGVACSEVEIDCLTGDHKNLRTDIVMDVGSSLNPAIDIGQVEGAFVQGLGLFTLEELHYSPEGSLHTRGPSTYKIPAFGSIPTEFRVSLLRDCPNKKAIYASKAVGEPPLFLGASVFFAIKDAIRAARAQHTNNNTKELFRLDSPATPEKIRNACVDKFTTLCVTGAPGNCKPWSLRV
As a rule, pIC50 stands for the negative log10 of the concentration, concentration in M.

Lab book: pIC50 of "c1ccc2[nH]ccc2c1" noted as 3.07

Lab book: pIC50 of "O=Cc1c[nH]c2ccccc12" noted as 4.87

Lab book: pIC50 of O=Cc1ccc(O)cc1 [4-hydroxybenzaldehyde] noted as 3.30
